- System: VDR homodimer (NR concentration 270 nM)
- ASSAY DETAILS: PBM binding z-score (relative to random genomic background probes); higher = stronger binding; sequences stand for … in GC…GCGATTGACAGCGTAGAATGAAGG
Classify by PBM binding z-score. Ranges: bottom bin = under -0.2, middle bin = from -0.2 up to 1, top bin = 1 and over

Here's what some known entries look like.
ATCTCTAGGTAAAAGTTCATTGAATCCCGAGGAT = top bin
ATCTCTAGGTAAGACTTAGTTCAGTGAAGAACGC = middle bin
CCGACTGGGGCAGAAAGGTTACCAAACCATCCGG = bottom bin
GCATGTAGATCAAGGTTAAGAAAGACTAAGCTAA = bottom bin
GCGACTGGGGCAAAGAAGGTTACCATAAGGTTGG = middle bin

Query block: Band assignment needed for TCATATAGGTAAATGCTAGCTGAAAGTCCGATCT please.
Result block: middle bin

Query block: Band assignment needed for CGAACTAGGTCATTGACAGGACAGTAAATAGTAA please.
Result block: top bin

Query block: Band assignment needed for GCCGCTAGGTCAACTGATGGTCAGCTAAAGCTCG please.
Result block: bottom bin

Query block: Band assignment needed for GCGACTGGGGCAAAGCAGGCTACCATAAGGTTGG please.
Result block: bottom bin

Query block: Band assignment needed for CGTCGAAGGTCATAGGAGGTCAGTGAAGACAGAT please.
Result block: top bin

====

- Test system: RARa homodimer (NR concentration 270 nM)
- ASSAY DETAILS: PBM binding z-score (relative to random genomic background probes); higher = stronger binding; sequences stand for … in GC…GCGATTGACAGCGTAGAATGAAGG
Measured PBM binding z-score accompanies every entry in the list below.
The response must contain the number and no unit.

Worked examples follow.
TCTATTAGTTGAAGGGCACCCGACGAGTCCGTTT = 1.45
TCTTATAGATCAAGCAGGTTAAGAAAGCCTGAGT = 0.426
CCTAGTTGGTCAGGAGGTCATACACCGGATATGA = 1.23
GCGACTAGGGCAAAGCAGGTTACCATAAGGTTGG = -1.2
CAAACTAGGTCAAGGGCAAAGTCGGTTTGTGCCA = 0.377

Query block: State the recorded PBM binding z-score for this entry: CGTCAAAGTTCAAGGTAACGCAACAGAAAGCAGC
Result block: 1.14

Query block: State the recorded PBM binding z-score for this entry: GCTATTAGTTGAAATGGCAACCGAATGATTCTCG
Result block: 0.404

Query block: State the recorded PBM binding z-score for this entry: CCTCGGAGGATAGAAGGTCAGAGCTGTCCGCTTT
Result block: 0.234

Query block: State the recorded PBM binding z-score for this entry: TCTATTAGTTGAAGGGCGACCGACGAGTCCGTTT
Result block: 0.844

Query block: State the recorded PBM binding z-score for this entry: TCTTGTAGTTCAATAGAGGTTAAGAAAGTGCGCT
Result block: 0.814

Query block: State the recorded PBM binding z-score for this entry: GCTATTAGTTGCAAGGGCAACCGAATGATTCTCG
Result block: -0.474

Query block: State the recorded PBM binding z-score for this entry: ATATGTTGGTTAGCTGGGGTCATTCAGACTAGGC
Result block: 1.53

Query block: State the recorded PBM binding z-score for this entry: GCAAACAGGTGAAACGCAGGTAACTCAGGGTGGC
Result block: -0.686
